# Tested on: HT-1080
# protocol: Modulatory profiling: Alamar Blue viability, lethal compound cotreated with death modulator (EC50, AUC)
# Assay type: cell-based
# Design: unit not given beside the values
# condition notes: HT-1080, modulator ActD
Categories are assigned from the measured AUC HT.ActD using these intervals: 1 (below -0.03), 2 (-0.03 to below -0.007), 3 (-0.007 or more)

Observe how each entry below is paired with its result.
[[record]]
compound = "OCCNCC(O)Cn1c2ccc(Br)cc2c2cc(Br)ccc21 (stereo not drawn)"
label_class = 2

[[record]]
compound = "N/C(=N\\OC(=O)C12CC3CC(CC(C3)C1)C2)c1ccccc1"
label_class = 1

[[record]]
compound = "O=C(/C=C/c1cccc(NC(=O)c2cccs2)c1)c1ccccc1"
label_class = 1


Query string: Using the reported AUC HT.ActD, which band applies to CCCCS(=O)(=O)/C=C\C=C/S(=O)(=O)CCCC ?
Result string: 2

Query string: For Cc1[nH]c2c(ccc3ccccc32)c1C1C(CCN)C1(C)C (stereo not drawn) then?
Result string: 3

Query string: Entry to check: C[C@@H]1C[C@@H]([C@H](O)CC2CC(=O)NC(=O)C2)C(=O)[C@@H](C)C1 [cycloheximide, Cycloheximide, reference compound]
Result string: 3

Query string: Here is the next compound: CC(C)=CCCC1=CCC(CNCCCN(C)C)C(C)C1 (stereo not drawn)
Result string: 2

Query string: Queued: COC(=O)[C@@H]1Cc2c([nH]c3ccccc23)C(C)(C)N1C(=O)CCl
Result string: 1

----------
# Tested on: HT-1080 cells
# protocol: Lethality of commercially available CIL41/70 structural analogs
# Format: cell-based
# condition notes: Homo sapiens, tested once in technical triplicates
measure: EC50

The following molecules have reported results that may help.
[[record]]
compound_smiles = "Cc1ccc(OCC(=O)O/N=C(\\N)Cc2ccc([N+](=O)[O-])cc2)c(Br)c1"
measure = "EC50"
recorded_result = "> 20 µg/mL"

[[record]]
compound_smiles = "Cc1cc(OCC(=O)O/N=C(\\N)Cc2ccc(Cl)cc2Cl)cc(C)c1Br"
measure = "EC50"
recorded_result = "> 20 µg/mL"


Query string: Sample CC(C)c1ccc(OCC(=O)O/N=C(\N)Cc2ccc([N+](=O)[O-])cc2)c(Br)c1 — what was its EC50?
Result string: > 20 µg/mL

Query string: Next up: N/C(Cc1ccc([N+](=O)[O-])cc1)=N\OC(=O)Cc1ccccc1
Result string: > 20 µg/mL

Query string: # repeat for N/C(Cc1ccc(Cl)cc1Cl)=N\OC(=O)COc1ccccc1
Result string: > 20 µg/mL

Query string: What do you get for N/C(Cc1ccc(Cl)cc1Cl)=N\OC(=O)/C=C/c1ccccc1Cl ?
Result string: 8.51 µg/mL

Query string: What would you report for CC(=O)O/N=C(N)/C(N)=N/OC(C)=O ?
Result string: > 20 µg/mL

Query string: COc1ccc(CC(=O)O/N=C(\N)Cc2ccc(OC)c(OC)c2)cc1 ?
Result string: > 20 µg/mL

Query string: Please answer likewise for CCc1nc(C)ccc1OC/C(N)=N/OC(C)=O
Result string: > 20 µg/mL

Query string: Now try N/C(Cc1ccc(Cl)cc1Cl)=N\OC(=O)/C=C/c1ccccc1 .
Result string: 12.3 µg/mL

----------
# Test system: BJeLR
# protocol: Modulatory profiling: Alamar Blue viability, lethal compound cotreated with death modulator (EC50, AUC)
# Type: cell-based, human
# Set-up: unit not given beside the values
# condition notes: BJeLR cells; lethal compound cotreated with modulator Co2+; modulatory profile value (AUC)
Exam item: assign MET to entries whose AUC, modulator BJ.Co2+ is below 0.06 and NOT MET to entries at or above 0.06. Note that a value of exactly 0.06 receives NOT MET.

[[record]]
compound = "COc1cccc2c1C(=O)c1c(O)c3c(c(O)c1C2=O)C[C@@](O)(C(C)=O)C[C@@H]3O[C@H]1C[C@H](N)[C@H](O)[C@H](C)O1"
label_class = "NOT MET"

[[record]]
compound = "O=P(Oc1ccccc1)(Oc1ccccc1)O[C@@H]1C=CS(=O)(=O)C1"
label_class = "MET"

[[record]]
compound = "CN(C)CCCOS(=O)(=O)c1ccc(N2CCC(c3ccc(Cl)cc3)=N2)cc1"
label_class = "MET"

[[record]]
compound = "COC(=O)c1[nH]c2ccc(Br)cc2c1NC(=O)CN1CCN(C2CCCCC2)CC1"
label_class = "MET"

[[record]]
compound = "CCC(C(NNC(=O)c1ccc(C(F)(F)F)cc1)c1ccc(C(F)(F)F)cc1)[N+](=O)O (centres unmarked)"
label_class = "MET"

[[record]]
compound = "COc1ccccc1/C=C/C1(C(=O)NC2CCCC2)CC(=O)N1c1ccc(F)cc1 (centres unmarked)"
label_class = "NOT MET"


Please turn your attention to the following entry.
Query string: Here's an entry: COc1cc([C@@H]2c3cc4c(cc3[C@H](O)[C@H]3COC(=O)[C@H]23)OCO4)cc(OC)c1OC . Is its AUC, modulator BJ.Co2+ below 0.06?
Result string: NOT MET

----------
# System: HT-1080 cells
# protocol: Lethality of commercially available CIL41/70 structural analogs
# Assay type: cell-based
# condition notes: Homo sapiens, tested once in technical triplicates
measure: EC50

[[record]]
compound = "COc1ccc(CC(=O)C/N=C(\\N)Cc2cccc3ccccc23)cc1 [CB86]"
measure = "EC50"
recorded_result = "> 20 µg/mL"

[[record]]
compound = "Cc1nn(C/C(N)=N/OC(=O)CC23CC4CC(CC(C4)C2)C3)c(C)c1Br [ZE2]"
measure = "EC50"
recorded_result = "15.6 µg/mL"

[[record]]
compound = "N/C(CC(=O)NC1CCCCC1)=N\\OC(=O)C1CCCN1C(=O)c1cccs1 (stereo not drawn) [EN9]"
measure = "EC50"
recorded_result = "> 20 µg/mL"

[[record]]
compound = "Cc1cccc(OCC(=O)O/N=C(\\N)Cc2ccc([N+](=O)[O-])cc2)c1 [CB39]"
measure = "EC50"
recorded_result = "> 20 µg/mL"

[[record]]
compound = "CC(C)(C)C(=O)O/N=C(\\N)CS(=O)(=O)c1ccc(Cl)cc1 [MB15]"
measure = "EC50"
recorded_result = "> 20 µg/mL"


Query string: Reported EC50, compound N/C(Cc1ccc([N+](=O)[O-])cc1)=N\OC(=O)CCCOc1ccccc1 [CB135] : ____
Result string: > 20 µg/mL

Query string: // query: N/C(Cc1ccc([N+](=O)[O-])cc1)=N\OC(=O)CSc1ccccc1 [CB141]
Result string: > 20 µg/mL

Query string: Record: N/C(Cc1ccc([N+](=O)[O-])cc1)=N\OC(=O)CC(c1ccccc1)c1ccccc1 [CB115]
Result string: 2.42 µg/mL

Query string: Now give it for N/C(=N\OC(=O)C12CC3CC(CC(C3)C1)C2)c1ccccc1 [CIL41] too.
Result string: 2.8 µg/mL

----------
# Test system: BJeLR
# protocol: Modulatory profiling: Alamar Blue viability, lethal compound cotreated with death modulator (EC50, AUC)
# Format: cell-based, human
# Parameters: unit not given beside the values
# condition notes: BJeLR cells; lethal compound cotreated with modulator Nec-1; modulatory profile value (AUC)
measure: AUC, modulator BJ.Nec-1

Illustrative cases are given below, each with its answer.
[[record]]
compound = "COc1ccc(N(C(=O)CCl)C(C(=O)NCCc2ccccc2)c2cccs2)cc1 (stereo not shown)"
measure = "AUC, modulator BJ.Nec-1"
recorded_result = 0.1295

[[record]]
compound = "CC(C)C[C@H](NC(=O)[C@H](Cc1ccccc1)NC(=O)c1cnccn1)B(O)O"
measure = "AUC, modulator BJ.Nec-1"
recorded_result = 0.002293

[[record]]
compound = "O=[N+]([O-])c1ccc(O)c([N+](=O)[O-])c1"
measure = "AUC, modulator BJ.Nec-1"
recorded_result = "−0.001955"


Query string: // lookup AUC, modulator BJ.Nec-1 for COC(=O)c1ccc([C@@H]2c3[nH]c4ccccc4c3C[C@@H](C(=O)OC)N2C(=O)CCl)cc1 [RSL3, reference compound]
Result string: 0.2379

----------
# System: BJeLR
# protocol: Modulatory profiling: Alamar Blue viability, lethal compound cotreated with death modulator (EC50, AUC)
# Type: cell-based, human
# Set-up: unit not given beside the values
# condition notes: BJeLR cells; lethal compound cotreated with modulator Boc D; modulatory profile value (AUC)
Heads up, the class ranges for AUC, modulator BJ.Boc D are 0: < -0.03; 1: ≥ -0.03 and < 0.006; 2: ≥ 0.006

[[record]]
molecule = "C[C@H]1CCC[C@]2(C)C[C@H]3OC(=O)[C@H](CN4CCCC4)[C@H]3C=C12 [CIL80]"
label_class = 2

[[record]]
molecule = "CCCCNc1cc(C)nc(NCc2ccccc2)n1 [CIL18]"
label_class = 1

[[record]]
molecule = "CC(C)=CCCC1=CCC(CNCCCN(C)C)C(C)C1 (stereo not shown) [CIL28]"
label_class = 1

[[record]]
molecule = "O=C1c2c(O)ccc(O)c2C(=O)c2c(NCCNCCO)ccc(NCCNCCO)c21 [Mitoxantrone]"
label_class = 2

[[record]]
molecule = "CC(C)[C@@H]1NC(=O)[C@H](C)OC(=O)[C@@H](C(C)C)NC(=O)[C@@H](C(C)C)OC(=O)[C@H](C(C)C)NC(=O)[C@H](C)OC(=O)[C@@H](C(C)C)NC(=O)[C@@H](C(C)C)OC(=O)[C@H](C(C)C)NC(=O)[C@H](C)OC(=O)[C@@H](C(C)C)NC(=O)[C@@H](C(C)C)OC1=O [Vatinomycin]"
label_class = 2

[[record]]
molecule = "COc1ccccc1/C=C/C1(C(=O)NC2CCCC2)CC(=O)N1c1ccc(F)cc1 (stereo not shown) [CIL1]"
label_class = 0


Query string: Classify this molecule: N/C(=N\OC(=O)C12CC3CC(CC(C3)C1)C2)c1ccccc1 [CIL41]
Result string: 0

Query string: Another molecule to look at: O=C(CCCCCN1C(=O)c2cccc3cccc(c23)C1=O)NO [Scriptaid]
Result string: 2

Query string: Could you do the same for CC(C)C[C@H](NC(=O)[C@H](CC(C)C)NC(=O)[C@H](CC(C)C)NC(=O)OCc1ccccc1)B(O)O [MG262] , please?
Result string: 2

Query string: Same again, this time with O=C1c2ccccc2-c2onc3ccc(Oc4ccccc4)c1c23 [CIL6]
Result string: 0
